Attribution: patent US20050148495A1

# PROCEDURE_DETAILS: in vivo
# ASSAY_CONDITIONS: both, rat, plasma, po, 10 mg/kg, AUCall, 10 mg/kg XMP.629 acetate oral gavage in distilled water, mean
Non-standard residues stand in square brackets, D forms with d. Residues, ends and D or L forms follow the SMILES beside them. d1Nal = N[C@H](Cc1cccc2ccccc12)C(=O)O
READOUT_LABEL: AUC

INSERT INTO results (compound, observed_result) VALUES
  ('CC(C)C[C@@H](NC(=O)[C@H](N)CCCCN)C(=O)N[C@H](Cc1ccccc1)C(=O)N[C@H](CCCNC(=N)N)C(=O)N[C@H](Cc1cccc2ccccc12)C(=O)N[C@H](CCC(N)=O)C(=O)N[C@H](C)C(=O)N[C@H](CCCCN)C(=O)N[C@H](Cc1cccc2ccccc12)C(N)=O [XMP.629] (H-[dK][dL][dF][dR][d1Nal][dQ][dA][dK][d1Nal]-NH2)', '0.55 ng·h/mL');

----------
# PROCEDURE_DETAILS: in vivo
# ASSAY_CONDITIONS: both, rat, plasma, po, 10 mg/kg, % F (bioavailability), 10 mg/kg XMP.629 acetate oral gavage in distilled water, mean
Non-standard residues stand in square brackets, D forms with d. Residues, ends and D or L forms follow the SMILES beside them. d1Nal = N[C@H](Cc1cccc2ccccc12)C(=O)O
READOUT_LABEL: bioavailability (%)

INSERT INTO measurements (compound, readout_label, observed_result) VALUES
  ('CC(C)C[C@@H](NC(=O)[C@H](N)CCCCN)C(=O)N[C@H](Cc1ccccc1)C(=O)N[C@H](CCCNC(=N)N)C(=O)N[C@H](Cc1cccc2ccccc12)C(=O)N[C@H](CCC(N)=O)C(=O)N[C@H](C)C(=O)N[C@H](CCCCN)C(=O)N[C@H](Cc1cccc2ccccc12)C(N)=O [XMP.629] (H-[dK][dL][dF][dR][d1Nal][dQ][dA][dK][d1Nal]-NH2)', 'bioavailability', 0.0015);

----------
# PROCEDURE_DETAILS: physchem
# ASSAY_CONDITIONS: propylene glycol
Non-standard residues stand in square brackets, D forms with d. Residues, ends and D or L forms follow the SMILES beside them. d1Nal = N[C@H](Cc1cccc2ccccc12)C(=O)O
READOUT_LABEL: solubility

INSERT INTO assay_data (molecule, observed_result) VALUES
  ('CC(C)C[C@@H](NC(=O)[C@H](N)CCCCN)C(=O)N[C@H](Cc1ccccc1)C(=O)N[C@H](CCCNC(=N)N)C(=O)N[C@H](Cc1cccc2ccccc12)C(=O)N[C@H](CCC(N)=O)C(=O)N[C@H](C)C(=O)N[C@H](CCCCN)C(=O)N[C@H](Cc1cccc2ccccc12)C(N)=O [XMP.629 acetate] (H-[dK][dL][dF][dR][d1Nal][dQ][dA][dK][d1Nal]-NH2)', '10.6 to 12.5 mg/mL');

----------
# PROCEDURE_DETAILS: in vivo
# ASSAY_CONDITIONS: both, Sprague-Dawley, rat, plasma, iv, 0.2 mg/kg, t1/2 β (β half-life), non-labeled XMP.629, 0.2 mg/kg intravenous, mean
Non-standard residues stand in square brackets, D forms with d. Residues, ends and D or L forms follow the SMILES beside them. d1Nal = N[C@H](Cc1cccc2ccccc12)C(=O)O
READOUT_LABEL: half-life (h)

INSERT INTO results (compound, observed_result) VALUES
  ('CC(C)C[C@@H](NC(=O)[C@H](N)CCCCN)C(=O)N[C@H](Cc1ccccc1)C(=O)N[C@H](CCCNC(=N)N)C(=O)N[C@H](Cc1cccc2ccccc12)C(=O)N[C@H](CCC(N)=O)C(=O)N[C@H](C)C(=O)N[C@H](CCCCN)C(=O)N[C@H](Cc1cccc2ccccc12)C(N)=O [XMP.629] (H-[dK][dL][dF][dR][d1Nal][dQ][dA][dK][d1Nal]-NH2)', 16.2);
